Target: T1, Spy_(29-124) K121D R122D (UniProt P77754 52-147, K121D | R122D)
T1 construct: source: E. coli BL21 (DE3), purified (Ni-NTA, cation exchange, SEC); not shown: His6, N-terminal, cleaved; SUMO, N-terminal, cleaved
T1 sequence (looked up): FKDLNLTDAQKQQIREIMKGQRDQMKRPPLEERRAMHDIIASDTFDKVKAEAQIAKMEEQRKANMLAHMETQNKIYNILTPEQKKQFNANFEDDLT
Assay: BLI; Octet RED96; client biotinylated and loaded on streptavidin sensors; Spy or Spy variant in solution at 0.25, 0.5, 1, 1.5 and 2 μM; 40 mM HEPES, 150 mM NaCl, pH 7.5; Kd calculated as koff/kon
Conditions: both partners purified
MEASUREMENT_TYPE: Kd (nM)
Express it in nM; write the number only.

QUERY: Kd lookup needed for Im7 H40W L53A I54A (natural protein, biotin (EZ-link NHS-biotin, 1:1 molar ratio of biotin to protein), Im7 (colicin E7 immunity protein) with H40W L53A I54A; Spy was made with an N-terminal His6-SUMO tag that was cleaved; also called Im7AAW; partially folded client; source: purified by a similar procedure to Spy) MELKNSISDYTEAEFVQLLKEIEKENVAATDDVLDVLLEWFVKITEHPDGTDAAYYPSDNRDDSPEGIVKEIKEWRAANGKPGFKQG , thanks.
RESULT: 1850
